From: PubChem BioAssay (NCI)

Record form. Attribute: TGI. Fill in for each entry.
test system: SF-539 CNS; assay: NCI tumour cell line growth inhibition, 48 h

Tested on SF-539 CNS: O=C(NO)C12C3C4C1C1C2C3C41C(=O)NO (stereo unspecified) . Observed TGI: > 100 µM

Tested on SF-539 CNS: CC1OC(OCC2COC(O)(Oc3c(-c4ccc(O)c(O)c4)oc4cc(O)cc(O)c4c3=O)C(O)C2O)C(O)C(O)C1O (stereo unspecified) . Observed TGI: > 100 µM

Lab note: each molecule below needs its TGI filled in.
1. CC#C[I+]c1ccccc1
2. O=C(c1cccnc1)N1N=C(c2ccc(Cl)cc2)CC1(O)c1cc(F)c(Cl)cc1Cl (stereo unspecified)
3. Nc1ncnc2c1ncn2C1OC(CO)=CC1O (stereo unspecified)

Result block:
1: 35.1 µM; 2: 28.1 µM; 3: > 37.5 µM

Lab note: each molecule below needs its TGI filled in.
1. CN(/N=C/C=N/N(C)C1=NCCCCN1)C1=NCCCCN1
2. Cc1ccc(Cl)c(NC(=O)C(=O)C(C(=O)c2ccncc2)C2OC(=O)c3ccccc32)c1 (stereo unspecified)
3. O=c1ccn2n1CCCCC2
4. CCC(C)C(NC(=O)C1CCCN1C(=O)C(NC(=O)C(C)N)C(C)C)C(N)=O (stereo unspecified)
5. Cc1ccc(C)c(NC(=O)CC/C(=N\NC(=O)C(N)=O)C(C)C(=O)c2ccc(O)cc2)c1 (stereo unspecified)
6. Cc1cc(C)c2c(=O)n(CN3CCC(O)(c4ccccc4)CC3)sc2n1
7. O=C(COc1ccccc1)NS(=O)(=O)c1ccccc1
8. Cc1cc(Cl)ccc1N=C1NC(=O)C(CC(=O)Nc2ccc(Cl)cc2Cl)S1 (stereo unspecified)

Result block:
> 100 µM
> 100 µM
> 100 µM
> 100 µM
> 100 µM
58.3 µM
> 100 µM
> 100 µM

Lab note: each molecule below needs its TGI filled in.
1. O=[N+]([O-])O.[Ga]
2. COC(=O)C1=C(C(=O)OC)C23C=C(C)C1C2=C(C)C1(CC1)[C@@](C)(O)C3=O (stereo partly specified)
3. COc1cc(-n2cc(-c3ccc(Cl)cc3)[nH]c2=O)cc(OC)c1OC

Result block:
1. > 10000 µM
2. 1.56 µM
3. 49.2 µM

----------
Record form. Attribute: GI50. Fill in for each entry.
tested on: RPMI-8226 leukemia; test: NCI tumour cell line growth inhibition, 48 h

Worked set:
In plain terms, COc1ccc([N+](=O)[O-])c(S(=O)(=O)c2ccc(Cl)cc2)n1 has a documented GI50 of 3.38 µM

In plain terms, COc1ccc2c(c1)CC[C@@H]1[C@@H]2CC[C@]2(C)C(c3ccco3)=C(C=O)C[C@@H]12 has a documented GI50 of 3.89 µM

Lab note: each molecule below needs its GI50 filled in.
1. CSc1nc2sc3cc(Cl)ccc3n2c(=N)c1C#N
2. COc1cc(-c2cc(-c3nc4ccc(Cl)cc4[nH]3)[nH]n2)cc(OC)c1OC
3. COc1ccc(-c2ccc(C3CC(c4ccc(Cl)cc4)=NN3)o2)c([N+](=O)[O-])c1 (centres undefined)
4. Nc1c(C(=O)Nc2ccccc2Cl)sc2nc3c(cc12)CCCCCC3
5. CCOC(=O)c1sc(=S)c2c(C(=O)OCC)c(C(=O)OCC)sc2c1C(=O)OCC

Result block:
1. > 80.6 µM
2. 1.65 µM
3. > 100 µM
4. > 100 µM
5. 7.88 µM

Lab note: each molecule below needs its GI50 filled in.
1. C=C1C(=O)O[C@H]2[C@H]1CC/C(COC(=O)NCc1c[nH]c3ccc(Cl)cc13)=C\CC[C@@]1(C)O[C@@H]21
2. COc1cc2nc(Nc3cccc(F)c3)nc(Nc3cc(C)[nH]n3)c2cc1OC

Result block:
0.836 µM
1.69 µM

----------
system: SF-539 CNS; assay: NCI tumour cell line growth inhibition, 48 h
value-kind: TGI

In plain terms, CCCCn1c2c(n(CCCC)c1=S)-c1c(n(CCCC)c(=S)n1CCCC)SSSS2 has a documented TGI of 2.94 µM

In plain terms, Nc1c(C(=O)Nc2ccccc2Cl)sc2nc3c(cc12)CCCCCC3 has a documented TGI of 8.12 µM

Lab note: each compound below needs its TGI filled in.
1. COc1ccc(/C=C2\CCC(C)(CN(C)C)C2=O)cc1 (stereo not given)
2. CC1=C(C(=O)NCc2ccccc2)C(c2ccccc2[N+](=O)[O-])C(C(=O)NCc2ccccc2)=C(C)N1

Result block:
1: > 100 µM; 2: 25.8 µM

Lab note: each compound below needs its TGI filled in.
1. CCCc1nc2c(C)cc(-c3nc4ccccc4n3C)cc2n1Cc1ccc(-c2ccccc2C(=O)O)cc1
2. Cc1n[nH]c(=O)n1/N=C/c1c[nH]c2ccccc12
3. COc1ccc(NC(=O)c2sc3nc(C)c(C(O)c4ccccc4)cc3c2N)cc1 (stereo not given)
4. NS(=O)(=O)c1ccc(N2N=C3c4ccccc4CC3C2c2ccc(Cl)cc2)cc1 (stereo not given)
5. CCCCCCCCCCCCCCCCOCC(COP(=O)([O-])OCC[N+](C)(C)C)OCCCCCCCCCCCCCCCC (stereo not given)
6. C[C@@H]1C=C2C(=O)O[C@@H]3CC[C@H](C1)[C@]23O

Result block:
1. > 100 µM
2. > 100 µM
3. 6.65 µM
4. 30.8 µM
5. > 100 µM
6. 11.9 µM

----------
Record form. Attribute: TGI. Fill in for each entry.
tested on: SK-MEL-28 melanoma; test: NCI tumour cell line growth inhibition, 48 h
Where a SMILES comes first, the peptide text is derived from it. [ ]: non-standard residue; d: D form. The star is where a group is joined. Octanoyl = CCCCCCCC(=O)*; Aib = CC(C)(N)C(=O)O; tBu = CC(C)(C)*

Worked set:
In plain terms, Cc1cc(Cl)cc2c1NC(=O)C2(O)C(C)C(=O)c1ccc(Cl)cc1 (stereo unspecified) has a documented TGI of > 100 µM

In plain terms, CCCCCCCC(=O)NC(C)(C)C(=O)NC(COC(C)(C)C)C(=O)NC(CC(C)C)C(=O)NC(C)(C)C(=O)NC(COC(C)(C)C)C(=O)NC(COC(C)(C)C)C(=O)NC(CC(C)C)C(=O)NC(C)(C)C(=O)NC(COC(C)(C)C)C(=O)NC(C(=O)NC(CC(C)C)C(=O)OC)C(C)CC (stereo unspecified) (Octanoyl-[Aib]S(tBu)L[Aib]S(tBu)S(tBu)L[Aib]S(tBu)IL-OMe; configuration not given here) has a documented TGI of > 25 µM

In plain terms, O=C(/C=C\c1ccc(Cl)cc1Cl)c1cccs1 has a documented TGI of 42.3 µM

In plain terms, OC1CN2CCS[C@H]2C(O)C1O (stereo partly specified) has a documented TGI of > 100 µM

In plain terms, C[C@@H]1C=C2C(=O)O[C@@H]3CC[C@H](C1)[C@]23O has a documented TGI of 25.8 µM

In plain terms, CCOC(=O)[C@@]12CCC(C1=O)[C@](C)(O)C[C@@H]2c1ccccc1 has a documented TGI of > 100 µM

In plain terms, CCOC(=O)c1cn(Cc2ccccc2)c(=O)n1Cc1ccccc1 has a documented TGI of > 100 µM

In plain terms, CCOC(=O)NC(NC(C)CC)(C(F)(F)F)C(F)(F)F (stereo unspecified) has a documented TGI of > 100 µM

Lab note: each compound below needs its TGI filled in.
1. COc1cc(C(=O)c2cc3c(cc2C)OCO3)cc(OC)c1OC
2. Cc1ccccc1CN1CC=c2ccccc2=N1
3. COc1ccc2c(c1)OC[C@@H]1c3cc4c(cc3O[C@H]21)OCO4

Result block:
1. > 100 µM
2. > 100 µM
3. > 100 µM

----------
Record form. Attribute: TGI. Fill in for each entry.
tested on: HCT-15 colon; test: NCI tumour cell line growth inhibition, 48 h
Where a SMILES comes first, the peptide text is derived from it. [ ]: non-standard residue; d: D form. The star is where a group is joined. Octanoyl = CCCCCCCC(=O)*; Aib = CC(C)(N)C(=O)O; tBu = CC(C)(C)*

Lab note: each molecule below needs its TGI filled in.
1. O=C(NCCO)Nc1c(C(F)(F)F)cc(-c2ccccc2)[nH]c1=O
2. COC1=CC(c2ccc[nH]2)=N/C1=C\c1ccc[nH]1
3. CCCN(CCC)c1ccc(/C=N/NC(=O)c2cccnc2)c(Cl)c1
4. OCC12C3C4C1C1C2C3C41CO (stereo not given)
5. Cc1n[nH]c(=O)n1/N=C/c1c[nH]c2ccccc12
6. c1ccc2c(c1)Nc1nc3nonc3nc1N2
7. c1cncc(-c2ncc3cccnc3n2)c1
8. CC(=O)O[C@H]1C(=O)[C@@]2(C)C(C(OC(=O)c3ccccc3)[C@]3(O)CC(OC(=O)C(O)C(NC(=O)c4ccc(C)cc4)c4ccccc4)C(C)=C1C3(C)C)[C@]1(OC(C)=O)CO[C@@H]1C[C@@H]2O (stereo not given in full)

Result block:
1: > 100 µM; 2: 12.3 µM; 3: 34.4 µM; 4: > 100 µM; 5: > 100 µM; 6: > 100 µM; 7: > 100 µM; 8: 3.29 µM

Lab note: each molecule below needs its TGI filled in.
1. CN(C)c1ccc(/C=C(\NC(=O)c2ccccc2)C(=O)NC(CCC(=O)O)C(=O)O)cc1 (stereo not given)
2. CC12CCC[C@@](C)(C(=O)OC3OC(CO)C(O)C(O)C3O)[C@H]1CCC13CC4CC(OC4(CO)[C@H]1O)[C@@H]23 (stereo not given in full)
3. COC(=O)C(Cc1ccccc1)OC(=O)C(N)CC(=O)O (stereo not given)
4. O=C(Nc1nc2ncn(CC(COc3ccccc3)OC(=O)c3ccccc3)c2c(=O)[nH]1)c1ccccc1 (stereo not given)

Result block:
["> 100 µM", "> 100 µM", "> 100 µM", "> 100 µM"]

Lab note: each molecule below needs its TGI filled in.
1. Nc1c(-c2ccc(Cl)cc2Cl)[n+]([O-])c2ccccc2[n+]1[O-]
2. CCOC(=O)c1sc(Nc2ccc(Cl)cc2)nc1C
3. CCCCCCCC[N+](C)(CCCCCCCC)CCCCCCCC
4. CCCCCCCC(=O)NC(C)(C)C(=O)NC(COC(C)(C)C)C(=O)NC(CC(C)C)C(=O)NC(C)(C)C(=O)NC(COC(C)(C)C)C(=O)NC(COC(C)(C)C)C(=O)NC(CC(C)C)C(=O)NC(C)(C)C(=O)NC(COC(C)(C)C)C(=O)NC(C(=O)NC(CC(C)C)C(=O)OC)C(C)CC (stereo not given) (Octanoyl-[Aib]S(tBu)L[Aib]S(tBu)S(tBu)L[Aib]S(tBu)IL-OMe; configuration not given here)
5. CC1OC(OCC2COC(O)(Oc3c(-c4ccc(O)c(O)c4)oc4cc(O)cc(O)c4c3=O)C(O)C2O)C(O)C(O)C1O (stereo not given)
6. N/N=C1/CCCc2nonc21

Result block:
1. > 100 µM
2. 3.92 µM
3. 2.1 µM
4. > 25 µM
5. > 100 µM
6. > 100 µM

Lab note: each molecule below needs its TGI filled in.
1. COC1=CC(c2ccc[nH]2)=N/C1=C\c1[nH]c(C)c(C(=O)CCCCC(=O)Nc2ccccc2)c1C
2. COc1ccc(-c2nc(-c3nc4ccc(OC)cc4[nH]3)cc3c2[nH]c2ccccc23)cc1
3. Clc1c(Cl)c2c(Cl)c(Cl)c1C[P+](c1ccccc1)(c1ccccc1)CC[P+](c1ccccc1)(c1ccccc1)Cc1c(Cl)c(Cl)c(c(Cl)c1Cl)C[P+](c1ccccc1)(c1ccccc1)CC[P+](c1ccccc1)(c1ccccc1)C2
4. CC1(C)CN=C(Nc2cccc(C(F)(F)F)c2)S1
5. O=c1oc2ccc3ccccc3c2cc1-c1nc2ccccc2o1
6. CC(=O)N=c1ccc2nc3c(cc(N)c4ccccc43)oc-2c1
7. N#Cc1ccnc(N2C(=O)CC[C@H]2C(=O)N(c2cncc(F)c2)[C@H](C(=O)NC2CC(F)(F)C2)c2ccccc2Cl)c1

Result block:
1: 2.44 µM; 2: > 100 µM; 3: 24.6 µM; 4: > 100 µM; 5: > 100 µM; 6: 2.5 µM; 7: > 100 µM
